Target: T1, similar peptide SP-05-0002, source protein not stated peptide on HLA-A*02:01 (human)
T1 peptide: KIFSGLLKV
Experiment: killing
quantity measured: binding result

TCR-5 (TCR, V domains shown) Valpha: QQLNQSPQSMFIQEGEDVSMNCTSSSIFNTWLWYKQDPGEGPVLLIALYKAGELTSNGRLTAQFGITRKDSFLNISASIPSDVGIYFCAGGYNYGQNFVFGPGTRLSVLP Vbeta: GVTQTPKHLITATGQRVTLRCSPRSGDLSVYWYQQSLDQGLQFLIQYYNGEERAKGNILERFSAQQFPDLHSELNLSSLELGDSALYFCASSAGLAGGYEQYFGPGTRLTVT :: no recognition
TCR-12 (TCR, V domains shown) Valpha: QLLEQSPQFLSIQEGENLTVYCNSSSVFSSLQWYRQEPGEGPVLLVTVVTGGEVKKLKRLTFQFGDARKDSSLHITAAQPGDTGLYLCAGGLSDSYDKVIFGPGTSLSVIP Vbeta: EVTQTPKHLVMGMTNKKSLKCEQHMGHRAMYWYKQKAKKPPELMFVYSYEKLSINESVPSRFSPECPNSSLLNLHLHALQPEDSALYLCASSQGVGQEYGYTFGSGTRLTVV :: no recognition
TCR-10 (TCR, V domains shown) Valpha: QNIDQPTEMTATEGAIVQINCTYQTSGFNGLFWYQQHAGEAPTFLSYNVLDGLEEKGRFSSFLSRSKGYSYLLLKELQMKDSASYLCAVPAPYTGTASKLTFGTGTRLQVTL Vbeta: GVTQTPKFQVLKTGQSMTLQCAQDMNHNSMYWYRQDPGMGLRLIYYSASEGTTDKGEVPNGYNVSRLNKREFSLRLESAAPSQTSVYFCASSEGYSTYNEQFFGPGTRLTVL :: no recognition
